molecular target: T1, PD-L1, histidine (His)-tagged (UniProt Q9NZQ7 19-238); test: AlphaScreen or HTRF; AlphaLISA kit AL356 HV/C/F (PerkinElmer), competition: biotin-conjugated PD-1 on streptavidin-coated donor beads, His-tagged PD-L1 on anti-His acceptor beads; 2 uL each of inhibitor dilution, PD-L1 (25 nM), PD-1 (25 nM) and the two beads in 10 uL; 25 °C, 90 min; IC50 from sigmoidal fit; conditions: both partners purified
T1 construct: PD-L1 (programmed cell death-ligand 1) of the AlphaLISA PD-1/PD-L1 kit; Held on anti-His-conjugated acceptor beads; also called His-tagged PD-L1; programmed cell death-ligand 1; source: bought: PerkinElmer AlphaLISA assay kit (AL356 HV/C/F)
T1 sequence (Q9NZQ7 19-238): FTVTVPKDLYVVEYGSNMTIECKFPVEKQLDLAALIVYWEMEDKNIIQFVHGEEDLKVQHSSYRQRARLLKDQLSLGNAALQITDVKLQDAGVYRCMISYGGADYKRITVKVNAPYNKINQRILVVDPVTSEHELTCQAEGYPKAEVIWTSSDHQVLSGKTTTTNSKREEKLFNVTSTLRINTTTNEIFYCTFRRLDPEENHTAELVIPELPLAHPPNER
Decide using IC50 alone. Strictly below 400 µM: Condition met. Equal to or above 400 µM: Condition not met.

[
  {
    "binder": "YGGGG (not fully specified; X (position 1) = biphenyl-conjugated bromotyrosine) [XGGGG]",
    "category": "Condition not met"
  },
  {
    "binder": "SYR (not fully specified; X (position 2) = biphenyl-conjugated bromotyrosine) [SXR]",
    "category": "Condition not met"
  },
  {
    "binder": "YHP (not fully specified; X (position 1) = biphenyl-conjugated bromotyrosine) [XHP]",
    "category": "Condition met"
  },
  {
    "binder": "YGG (not fully specified; X (position 1) = biphenyl-conjugated bromotyrosine) [XGG]",
    "category": "Condition not met"
  },
  {
    "binder": "CYR (not fully specified; X (position 2) = biphenyl-conjugated bromotyrosine) [CXR]",
    "category": "Condition not met"
  },
  {
    "binder": "ERYNK (not fully specified; X (position 3) = biphenyl-conjugated bromotyrosine) [ERXNK]",
    "category": "Condition met"
  },
  {
    "binder": "YNH (not fully specified; X (position 1) = biphenyl-conjugated bromotyrosine) [XNH]",
    "category": "Condition met"
  }
]
